targetOrSystem: Human immunodeficiency virus type 1 reverse transcriptase (Human immunodeficiency virus 1, UniProt Q72547)
testSummary: Inhibition of recombinant wild type HIV-1 reverse transcriptase using poly(rA)350/oligo(dT)16 as template/primer preincubated for 1 hr followed by substrate addition measured after 30 mins by pico-green reagent based fluorescence analysis
resultType: pIC50
# reply with the number alone; pIC50 is -log10 of concentration in mol/L

Prompt: Item under review: N#C/C=C/c1cc(Cl)cc(Oc2ccc(Cl)cc2OCCn2ccc(=O)[nH]c2=O)c1 . Reported pIC50?
Completion: 8.52

----------
targetOrSystem: Human immunodeficiency virus type 1 reverse transcriptase (Human immunodeficiency virus 1, UniProt Q72547)
testSummary: Covalent inhibition of recombinant wild type HIV-1 reverse transcriptase using poly(rA)350/oligo(dT)16 as template/primer preincubated followed by substrate addition measured after 30 mins by pico-green reagent based fluorescence analysis
Each entry below carries its reported pIC50.
# reply with the number alone; pIC50 is -log10 of concentration in mol/L

Guide cases for pIC50, answers given:
[
  {
    "lineNotation": "N#Cc1cc(Cl)cc(Oc2ccc(OS(=O)(=O)F)cc2OCCn2ccc(=O)[nH]c2=O)c1",
    "pIC50": 6.99
  },
  {
    "lineNotation": "N#Cc1cc2c(Oc3ccc(OS(=O)(=O)F)cc3OCCn3ccc(=O)[nH]c3=O)cc(F)cn2c1",
    "pIC50": 7.19
  },
  {
    "lineNotation": "N#Cc1cc(Cl)cc(Oc2cc(OS(=O)(=O)F)ccc2Cl)c1",
    "pIC50": 6.08
  },
  {
    "lineNotation": "Cc1cc(/C=C/C#N)cc(C)c1Nc1ccnc(Nc2ccc(C#N)cc2)n1",
    "pIC50": 7.42
  }
]

Prompt: Item under review: N#Cc1ccc2c(Oc3ccc(OS(=O)(=O)F)cc3OCCn3ccc(=O)[nH]c3=O)cc(Cl)cc2c1 . Reported pIC50?
Completion: 7.83

Prompt: Item under review: N#Cc1cc2c(Oc3ccc(OS(=O)(=O)F)cc3OCCn3ccc(=O)[nH]c3=O)cc(Cl)cn2c1 . Reported pIC50?
Completion: 7.37

Prompt: Item under review: Cn1c(=O)ccn(CCOc2cc(OS(=O)(=O)F)ccc2Oc2cccn3cc(C#N)cc23)c1=O . Reported pIC50?
Completion: 6.79

Prompt: Item under review: Cn1c(=O)ccn(CCOc2cc(S(=O)(=O)F)ccc2Oc2cc(Cl)cc(C#N)c2)c1=O . Reported pIC50?
Completion: 6.43

Prompt: Item under review: N#C/C=C/c1cc(F)cc(Oc2ccc(OS(=O)(=O)F)cc2OCCn2ccc(=O)[nH]c2=O)c1 . Reported pIC50?
Completion: 6.82

Prompt: Item under review: N#Cc1cc(Cl)cc(Oc2ccc(S(=O)(=O)F)cc2OCCn2ccc(=O)[nH]c2=O)c1 . Reported pIC50?
Completion: 5.30

Prompt: Item under review: N#Cc1cc(Cl)cc(Oc2ccc(OS(=O)(=O)F)cc2Cl)c1 . Reported pIC50?
Completion: 5.31

Prompt: Item under review: N#C/C=C/c1cc(Cl)cc(Oc2ccc(OS(=O)(=O)F)cc2OCCn2ccc(=O)[nH]c2=O)c1 . Reported pIC50?
Completion: 6.92

Prompt: Item under review: Cn1c(=O)ccn(CCOc2cc(OS(=O)(=O)F)ccc2Oc2cc(Cl)cc(C#N)c2)c1=O . Reported pIC50?
Completion: 6.61

Prompt: Item under review: N#Cc1ccc2c(Oc3ccc(OS(=O)(=O)F)cc3OCCn3ccc(=O)[nH]c3=O)cccc2c1 . Reported pIC50?
Completion: 7.08

----------
testSummary: Cytotoxicity against human MT2 cells assessed as cell growth inhibition after 5 days by MTT assay
Assay type: cell-based
experimentalConditions: time 5 day
Each entry below carries its reported CC50 at 120 h.

[
  {
    "lineNotation": "N#C/C=C/c1cc(Cl)cc(Oc2ccc(OS(=O)(=O)F)cc2OCCn2ccc(=O)[nH]c2=O)c1",
    "CC50 at 120 h": "45 µM"
  },
  {
    "lineNotation": "Cc1ccnc2c1NC(=O)c1cccnc1N2C1CC1",
    "CC50 at 120 h": "> 100 µM"
  },
  {
    "lineNotation": "N#C/C=C/c1cc(Cl)cc(Oc2ccc(Cl)cc2OCCn2ccc(=O)[nH]c2=O)c1",
    "CC50 at 120 h": "10 µM"
  },
  {
    "lineNotation": "N#C/C=C/c1cc(F)cc(Oc2ccc(OS(=O)(=O)F)cc2OCCn2ccc(=O)[nH]c2=O)c1",
    "CC50 at 120 h": "42 µM"
  },
  {
    "lineNotation": "N#Cc1cc(Cl)cc(Oc2ccc(OS(=O)(=O)F)cc2Cl)c1",
    "CC50 at 120 h": "50 µM"
  }
]

Prompt: Item under review: N#Cc1cc2c(Oc3ccc(OS(=O)(=O)F)cc3OCCn3ccc(=O)[nH]c3=O)cc(F)cn2c1 . Reported CC50 at 120 h?
Completion: 55 µM

Prompt: Item under review: N#Cc1ccc2c(Oc3ccc(OS(=O)(=O)F)cc3OCCn3ccc(=O)[nH]c3=O)cc(Cl)cc2c1 . Reported CC50 at 120 h?
Completion: 15 µM

Prompt: Item under review: Cn1c(=O)ccn(CCOc2cc(S(=O)(=O)F)ccc2Oc2cc(Cl)cc(C#N)c2)c1=O . Reported CC50 at 120 h?
Completion: 60 µM

Prompt: Item under review: N#Cc1cc(Cl)cc(Oc2cc(OS(=O)(=O)F)ccc2Cl)c1 . Reported CC50 at 120 h?
Completion: 78 µM

----------
targetOrSystem: Human immunodeficiency virus type 1 reverse transcriptase (Human immunodeficiency virus 1)
testSummary: Covalent inhibition of recombinant wild type HIV-1 reverse transcriptase using poly(rA)350/oligo(dT)16 as template/primer preincubated followed by substrate addition measured after 48 hrs by pico-green reagent based fluorescence analysis
resultType: pIC50
# reply with the number alone; pIC50 is -log10 of concentration in mol/L

[
  {
    "lineNotation": "N#Cc1cc2c(Oc3ccc(OS(=O)(=O)F)cc3OCCn3ccc(=O)[nH]c3=O)cc(F)cn2c1",
    "pIC50": 6.37
  },
  {
    "lineNotation": "Cn1c(=O)ccn(CCOc2cc(OS(=O)(=O)F)ccc2Oc2cccn3cc(C#N)cc23)c1=O",
    "pIC50": 5.95
  }
]

Let us move to another entry and its pIC50.
Prompt: Item under review: N#Cc1cc(Cl)cc(Oc2ccc(OS(=O)(=O)F)cc2OCCn2ccc(=O)[nH]c2=O)c1 . Reported pIC50?
Completion: 6.79

----------
Each entry below carries its reported IC50.
testSummary: Covalent inhibition of HIV-1 reverse transcriptase Tyr181Cys mutant
Parameters: species or system Human immunodeficiency virus 1

Guide cases for IC50, answers given:
[
  {
    "lineNotation": "N#Cc1cc(Cl)cc(Oc2ccc(OS(=O)(=O)F)cc2OCCn2ccc(=O)[nH]c2=O)c1",
    "IC50": "45 nM"
  },
  {
    "lineNotation": "Cn1c(=O)ccn(CCOc2cc(OS(=O)(=O)F)ccc2Oc2cccn3cc(C#N)cc23)c1=O",
    "IC50": "202 nM"
  },
  {
    "lineNotation": "N#Cc1cc2c(Oc3ccc(OS(=O)(=O)F)cc3OCCn3ccc(=O)[nH]c3=O)cc(F)cn2c1",
    "IC50": "63 nM"
  }
]

Let us move to another entry and its IC50.
Prompt: Item under review: N#Cc1cc2c(Oc3ccc(OS(=O)(=O)F)cc3OCCn3ccc(=O)[nH]c3=O)cc(Cl)cn2c1 . Reported IC50?
Completion: 41 nM
